# tested system: TNKS1 (Homo sapiens, UniProt O95271)
# Construct: GST-tagged Tnks-1 (1023-1327 aa, prepared in-house); made in house
# Sequence (O95271 1023-1327): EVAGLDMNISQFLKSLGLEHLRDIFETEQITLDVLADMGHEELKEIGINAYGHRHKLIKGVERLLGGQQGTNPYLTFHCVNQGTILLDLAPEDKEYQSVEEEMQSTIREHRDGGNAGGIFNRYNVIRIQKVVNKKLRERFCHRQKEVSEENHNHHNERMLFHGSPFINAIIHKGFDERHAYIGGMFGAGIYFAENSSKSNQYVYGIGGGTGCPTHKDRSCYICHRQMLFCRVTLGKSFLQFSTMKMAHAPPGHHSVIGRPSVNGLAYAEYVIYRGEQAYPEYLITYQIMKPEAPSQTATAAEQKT
# assay remarks: TNKS1 activity ELISA (autoparsylation assay)
# Format: biochemical
# protocol conditions: GST-tagged Tnks-1 (1023-1327 aa)
Where a name gives a salt, the structure may show the parent alone.
recorded metric: IC50 (nM)
Number only, in nM; omit the unit.

compound	IC50 [nM]
COc1ccc(C(=O)C2CCN(C(=O)CCCc3nn4c(C)ccc4c(=O)[nH]3)CC2)cc1C	0.16

(Q) Give TNKS1 (Homo sapiens, UniProt O95271) IC50 for CC(C)n1cc(C(=O)C2CCN(C(=O)CCCc3nc4c(cnn4C)c(=O)[nH]3)CC2)cn1
(A) 2

(Q) Give TNKS1 (Homo sapiens, UniProt O95271) IC50 for CCn1cc(C(=O)C2CCN(C(=O)CCCc3nc4c(C)csc4c(=O)[nH]3)CC2)cn1 [Compound C224, trifluoroacetate]
(A) 0.87

====

# tested system: PARP-1 (Homo sapiens, UniProt P09874)
# Construct: purchased Enzo Life Sciences GmbH, Lörrach, Germany
# Sequence (P09874 whole entry): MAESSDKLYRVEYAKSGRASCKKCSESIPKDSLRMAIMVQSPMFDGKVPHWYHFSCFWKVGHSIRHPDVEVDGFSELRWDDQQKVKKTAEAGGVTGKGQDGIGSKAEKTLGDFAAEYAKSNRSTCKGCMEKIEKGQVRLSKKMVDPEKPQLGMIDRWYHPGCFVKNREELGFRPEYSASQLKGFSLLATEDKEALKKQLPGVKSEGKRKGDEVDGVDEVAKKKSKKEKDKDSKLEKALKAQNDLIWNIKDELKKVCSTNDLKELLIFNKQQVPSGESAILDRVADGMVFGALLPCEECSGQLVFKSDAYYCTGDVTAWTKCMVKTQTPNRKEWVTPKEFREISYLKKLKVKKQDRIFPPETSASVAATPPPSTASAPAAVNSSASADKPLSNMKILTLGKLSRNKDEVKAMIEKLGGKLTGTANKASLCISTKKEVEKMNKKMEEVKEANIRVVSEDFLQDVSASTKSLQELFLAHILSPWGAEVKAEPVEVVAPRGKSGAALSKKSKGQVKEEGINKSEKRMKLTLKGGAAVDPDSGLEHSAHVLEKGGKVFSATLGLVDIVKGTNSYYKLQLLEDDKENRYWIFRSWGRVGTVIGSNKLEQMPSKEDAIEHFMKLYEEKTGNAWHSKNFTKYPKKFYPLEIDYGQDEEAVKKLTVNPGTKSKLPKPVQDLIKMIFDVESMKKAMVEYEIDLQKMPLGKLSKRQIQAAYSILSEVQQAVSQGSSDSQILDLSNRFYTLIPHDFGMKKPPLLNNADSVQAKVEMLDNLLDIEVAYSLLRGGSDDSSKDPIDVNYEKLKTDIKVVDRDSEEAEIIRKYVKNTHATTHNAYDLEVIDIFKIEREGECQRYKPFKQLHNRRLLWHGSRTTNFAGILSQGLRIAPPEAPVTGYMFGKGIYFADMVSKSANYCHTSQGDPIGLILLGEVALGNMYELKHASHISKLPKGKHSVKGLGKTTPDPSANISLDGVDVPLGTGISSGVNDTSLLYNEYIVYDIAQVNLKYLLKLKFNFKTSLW
# assay remarks: PARP-1 autoparsylation assay (HTRF)
# Assay type: biochemical
# protocol conditions: His-tagged Parp-1, autoparsylation HTRF
recorded metric: IC50 (µM)
Number only, in µM; omit the unit.

Below are worked cases with known answers.
smiles str	measured value
COc1ccc(C(=O)C2CCN(C(=O)CCCc3cn4c(C)ncc4c(=O)[nH]3)CC2)cn1	6.7
Cc1ccc2c(=O)[nH]c(CCCC(=O)N3CCC(C(=O)c4ccc(F)cc4)CC3)nn12	2
COc1ccc(C(=O)C2CCN(C(=O)CCCc3nn4c(C)ccc4c(=O)[nH]3)CC2)cc1C	0.61
Cc1ccc2c(=O)[nH]c(CCCC(=O)N3CCC(C(=O)c4ccc(C(C)(C)O)cc4)CC3)nn12	0.6
O=C(c1ccc(F)cc1)C1CCN(C(=O)CCCc2nc3c(c(=O)[nH]2)COCC3)CC1	5.2

(Q) Item CC(C)n1cc(C(=O)C2CCN(C(=O)CCCc3nn4cccc4c(=O)[nH]3)CC2)cn1 has what recorded IC50?
(A) 25

(Q) Item Cn1ncc2c(=O)[nH]c(CCCC(=O)N3CCC(C(=O)c4ccc(Cl)cc4)CC3)nc21 has what recorded IC50?
(A) 10

(Q) Item Cn1cc(C(=O)C2CCN(C(=O)CCCc3nc4c(ccn4C)c(=O)[nH]3)CC2)cn1 has what recorded IC50?
(A) 0.87

====

# Tested on: Tankyrases
# protocol conditions: read-out: EC50 [M] TNKS cellular assay; DLD1 cells, 24 hours, Axin2 increase
recorded metric: EC50
Be sure to follow the number with its unit.

molecule	tested system	EC50
COc1ccc(C(=O)C2CCN(C(=O)CCCc3nn4c(C)ccc4c(=O)[nH]3)CC2)cc1 [Compound C37]	Tankyrases	1e-09 M

(Q) Item COc1ccc(C(=O)C2CCN(C(=O)CCCc3nc4c(F)cc(F)cc4c(=O)[nH]3)CC2)cc1 [Compound A5, reference compound] has what recorded EC50?
(A) 2.6e-09 M

(Q) Item COc1ccc(C(=O)C2CCN(C(=O)CCCc3nc4ccccc4c(=O)[nH]3)CC2)cc1 [Compound A1, reference compound] has what recorded EC50?
(A) 2e-09 M

(Q) Item Cc1ccc2c(=O)[nH]c(CCCC(=O)N3CCC(C(=O)c4cnn(C)c4)CC3)nn12 [Compound C157] has what recorded EC50?
(A) 2.7e-09 M

(Q) Item Cn1ccc2c(=O)[nH]c(CCCC(=O)N3CCC(c4cnc(N)c(-c5ncccn5)c4)CC3)nc21 [Compound C183] has what recorded EC50?
(A) 1e-08 M

(Q) Item COc1ccc(C(=O)C2CCN(C(=O)CCCc3nn4cc(C)cc4c(=O)[nH]3)CC2)cc1F [Compound C158] has what recorded EC50?
(A) 4.4e-09 M

(Q) Item COc1ccc(C(=O)C2CCN(C(=O)CCCc3nc4c(ccn4C)c(=O)[nH]3)CC2)cn1 [Compound C181] has what recorded EC50?
(A) 7.3e-09 M
